- tested-on: T1, recombinant human IL12Rβ1/Fc fusion protein (human, UniProt P42701 24-545)
- T1 construct: Bought from R&D Systems; Partly used biotinylated; also called rh IL12Rβ1
- assay-procedure: solution equilibrium titration (SET), BioVeris ECL, Fab
Kd listing for selected binders.
Expressed in nM, but write only the number.

The cases that follow already have their Kd on record.
MOR05278 Fab (Fab, V domains shown) VH: QVQLVESGGGLVQPGGSLRLSCAASGFTFSSYGMSWVRQAPGKGLEWVSYIEPKLFWYATFYAASVKGRFTISRDNSKNTLYLQMNSLRAEDTAVYYCARNDFMEPAYFALWGQGTLVTVSS VL: DIELTQPPSVSVAPGQTARISCSGDNLGSYYAYWYQQKPGQAPVGVIYDDSERPSGIPERFSGSNSGNTATLTISGTQAEDEADYYCSSYTYSKNNVFGGGTKLTVLG | 0.031
MOR05286 Fab (Fab, V domains shown, also called MOR5286) VH: QVQLKESGPALVKPTQTLTLTCTFSGFSLSTSGMGVSWIRQPPGKALEWLALIDWTDDKYYSTSLKTRLTISKDTSKNQVVLTMTNMDPVDTATYYCARTVGKGLYRVDNWGQGTLVTVSS VL: DIELTQPPSVSVAPGQTARISCSGDNLGSKFAYWYQQKPGQAPVLVIYDDSKRPSGIPERFSGSNSGNTATLTISGTQAEDEADYYCQSWDSSSGNDVFGGGTKLTVLG | 0.059
MOR05271 Fab (Fab, V domains shown) VH: QVQLKESGPALVKPTQTLTLTCTFSGFSLSTSTMGVSWIRQPPGKALEWLAWIYWDDDKDYSTSLKSRLTISKDTSKNQVVLTMTNMDPVDTATYYCARANPDLGYFDYWGQGTLVTVSS VL: DIALTQPASVSGSPGQSITISCTGTSSDLGESNYVSWYQQHPGKAPKVMIYDVNKRPSGVSNRFSGSKSGNTASLTISGLQAEDEADYYCGSYDEEDNVFGGGTKLTVLG | 0.021

Now for a further binder.
Request: State its Kd for this binder: MOR05281 Fab (Fab, V domains shown) VH: QVQLKESGPALVKPTQTLTLTCTFSGFSLSTRGVGVSWIRQPPGKALEWLALIYWDEDKYYSTSLKTRLTISKDTSKNQVVLTMTNMDPVDTATYYCARYQSGYYYNNDGWGVDIWGQGTLVTVSS VL: DIQMTQSPSSLSASVGDRVTITCRASQSISSWLNWYQQKPGKAPKLLIYAASSLQSGVPSRFSGSGSGTDFTLTISSLQPEDFATYYCQQYYAFPHTFGQGTKVEIKR
Response: 0.001
